Tested on: UO-31 renal
Experimental Protocol: NCI-60 one-dose screen, 48 h (100 = growth as untreated, 0 = no growth, -100 = all killed)
Cond: 10 µM unless noted
The panel holds about 83,000 compounds, 20% with a hit somewhere; the sample as a whole holds those more often.
Reported growth values for the following molecules.

| Molecule | growth (%) |
| --- | --- |
| C[C@H]1c2[nH]c3ccccc3c2C[C@H]2C(=O)N(CCCCCCC(=O)NO)CC(=O)N21 | 83.3 |
| O=S(=O)(Nc1cccc2ccccc12)c1ccc(-c2cnc(C3CC3)o2)cc1 | 43.5 |
| O=C(Nc1ccc(N=Cc2c(O)[nH]c3ccccc23)cc1)Nc1nccs1 | 48.4 |
| Nc1ncc(-c2ccc3ncnc(Nc4cccc(Cl)c4F)c3c2)cn1 | 34.6 |
| CC(=O)c1cc(C(=O)c2ccc(Br)cc2)n2cc(C)cc(C)c12 | 84.8 |
| COc1ccc(NC2=C(Cl)C(=O)c3nc(C)ccc3C2=O)cc1OC | 100 |
| COc1cc(Cn2cc3c(c2)-c2onc(CN4CCOCC4)c2CC3)cc(OC)c1OC | 78.7 |
| COc1cc2nc(Cl)nc(Nc3cccc(C4=Nc5c(N)nc(N)nc5NC(c5ccc(Cl)cc5)C4)c3)c2cc1OC (stereo not given) | 89.9 |
| CCc1cccc(NC(=O)CNc2cc(S(=O)(=O)N(C)C)cc(C)c2C)c1 | 48.5 |
| CCNC(=O)N1CCc2cc(OC)c(OCCc3ccc(OC)nc3)cc2C1c1ccc(OC)cc1C (stereo not given) | 40.3 |
